# Test system: MOLM-13 cells
# Measurement notes: Cell viability assay (CellTiter-Glo) in MOLM-13 cells, alone or with gilteritinib
# Assay type: cell-based
# Recorded conditions: Homo sapiens, MOLM-13, 72 h, MOLM-13 cells, compound alone (without gilteritinib), three days, CellTiter-Glo; read-out: MOLM-13 IC50
pIC50: −log10 of the molar value.
Reported metric: pIC50

Here are 2 molecules together with their reported answers.
Molecule	pIC50
CC(C)n1ccc2c(-c3cn([C@H]4C[C@H](CNc5ccc6c(c5)C(=O)N(C5CCC(=O)NC5=O)C6=O)C4)nc3C3CC3)nccc21 (stereo partly shown) [GS-623]	7.00 to 8.00
O=C1CCC(N2C(=O)c3ccc(NC[C@H]4C[C@H](n5cc(-c6ccncc6)c(C6CC6)n5)C4)cc3C2=O)C(=O)N1 (stereo partly shown) [GS-265]	< 6.00

Looking for the measured pIC50 of O=C1CCC(N2C(=O)c3ccc(NCCCCCCn4cc(-c5cnc6cccc(N7CCNCC7)c6n5)cn4)cc3C2=O)C(=O)N1 (stereo not shown) [GS-384] , can you help?
< 6.00

Form field: reported pIC50 of O=C1CCC(N2Cc3c(Nc4ccnc(NCCC(=O)N5CCC(n6cc(-c7cnc8ccccc8n7)cn6)CC5)n4)cccc3C2=O)C(=O)N1 (stereo not shown) [GS-085]
< 6.00

Which pIC50 value belongs to CN1CCC(c2cccc(-c3cnn([C@H]4C[C@H](CCCNc5ccc6c(c5)C(=O)N(C5CCC(=O)NC5=O)C6=O)C4)c3)n2)CC1 (stereo partly shown) [GS-237] ?
< 6.00
